assay-summary: NCI Yeast Anticancer Drug Screen. Data for the mlh1 rad18 strain (AID 175)
measurement-setup: S. cerevisiae mlh1 rad18 strain growth inhibition; at 50.0 µM; hits give high values
The panel holds about 79,000 compounds, 15% with a hit somewhere; the sample as a whole holds those more often.
experimental-endpoint: growth inhibition (%)
The figure you give is taken to be in %; do not add the unit.

molecule	growth inhibition (%)
O=c1[nH]nc(-c2ccccc2)n1/N=C/c1c(O)ccc2ccccc12	24.6
Cc1ccc2c(-c3ccc4ccccc4c3)c3ccccc3cc2c1	-40.5
O=C(O)COc1ccc(C(=O)/C(SS/C(C(=O)c2ccc(OCC(=O)O)c(Cl)c2Cl)=C2\C=C(c3ccccc3Cl)SS2)=C2/C=C(c3ccccc3Cl)SS2)c(Cl)c1Cl	-27.1
Cn1c(=O)c2c(ncn2CCNC(c2ccccc2)c2ccc(Br)cc2)n(C)c1=O (configuration not stated)	13.6
CCCCc1c[nH]c(=O)[nH]c1=O	5.7
Cc1cn(C2CCN(CC3COC(C)(C)O3)O2)c(=O)[nH]c1=O (configuration not stated)	-19.6

query: Recorded growth inhibition for `O=C1NC(=O)[C@H]2C3C=CC([C@@H]12)[C@@H]1C(=O)NC(=O)[C@H]31` , please?
result: -47.6

###

Recorded growth inhibition values for a group of molecules are listed next.
assay-summary: NCI Yeast Anticancer Drug Screen. Data for the sgs1 mgt1 strain (AID 161);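 also: 0% = growth of cultures given vehicle only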
measurement-setup: S. cerevisiae sgs1 mgt1 strain, at 50.0 µM, hits give high values
This is part of a sample that, as a whole, favours compounds with a hit. Of some 79,000 tested, about 15% had one in any assay.
The figure you give is taken to be in %; do not add the unit.

molecule	experimental-endpoint	endpoint-result
OC(CCN1CCC2CCC(C2)C1)(c1ccccc1)c1ccc(Cl)cc1 (centres undefined)	growth inhibition	14
COc1cc2c(cc1C/C=C/c1cc(OC)c(OC)c(OC)c1)OCO2	growth inhibition	22.8

query: Recorded growth inhibition for CCC(C)C(CC)C(=O)N(C)C(=O)N(C)C(C)=O (centres undefined) , please?
result: 4.5

query: Recorded growth inhibition for `N#Cc1c(N)nc([Se]CC(=O)c2ccc(Cl)cc2)c(C#N)c1-c1ccco1` , please?
result: 2.3

###

assay-summary: NCI Yeast Anticancer Drug Screen. Data for the mlh1 rad18 strain (AID 175)
measurement-setup: S. cerevisiae mlh1 rad18 strain growth inhibition; at 50.0 µM; hits give high values
The panel holds about 79,000 compounds, 15% with a hit somewhere; the sample as a whole holds those more often.
Recorded growth inhibition values for a group of compounds are listed next.
The figure you give is taken to be in %; do not add the unit.

compound	growth inhibition, %
COC(=O)C(Cc1ccccc1)NCCN (stereo not drawn)	2.1
N#Cc1nnc2cc(-c3ccccc3)nn2c1-c1cccs1	6.35

query: Recorded growth inhibition for Cc1ccc(S(=O)(=O)OCC(c2ccccc2)C(F)(F)F)cc1 (stereo not drawn) , please?
result: -1

###

assay-summary: NCI Yeast Anticancer Drug Screen. Data for the mlh1 rad18 strain (AID 175)
measurement-setup: S. cerevisiae mlh1 rad18 strain growth inhibition; at 50.0 µM; hits give high values
Compounds without any hit were thinned out: in the full panel of roughly 79,000, 15% have a hit.
Recorded growth inhibition values for a group of compounds are listed next.
The figure you give is taken to be in %; do not add the unit.

compound	endpoint-result
COC(C(O)C(O)C(O)C(O)CO)n1cnc2cncnc21 (centres undefined)	2.45
O=C(CCC(=O)Nc1ccccc1[N+](=O)[O-])CC(=O)c1ccc(Br)cc1	6.15
COC(=O)CCNCCSC(=O)c1ccccc1	4.6
CCCNC(=O)Nc1ccc(OC)cc1Cl	-15.6

Let us move to another entry and its growth inhibition.
query: Recorded growth inhibition for `CCCNC(=O)c1ccc(Cl)cc1Cl` , please?
result: 27.1
